# Tested on: Human immunodeficiency virus 1
# run_description: Antiviral activity against non-nucleoside reverse transcriptase inhibitor-resistant HIV1 bearing reverse transcriptase N119 (Y181C) mutation infected in human MT4 cells assessed as protection from virus-induced cytopathogenicity after 4 days by MTT assay
# Type: functional, organism-based
# condition_description: Human immunodeficiency virus 1, MT4, 96 h
measure_name: EC50
Please answer using the number first and the unit second.

Completed entries (count: 3):
molecule	target_system	EC50
Cc1cn([C@H]2C[C@H](N=[N+]=[N-])[C@@H](COP(=O)(Oc3ccncc3)Oc3cccnc3)O2)c(=O)[nH]c1=O (some centres undefined)	Human immunodeficiency virus 1	10 nM
O=c1ccn([C@H]2CC[C@@H](COP(=O)(Oc3ccncc3)Oc3cccnc3)O2)c(=O)[nH]1 (some centres undefined)	Human immunodeficiency virus 1	9000 nM
Cc1cn([C@H]2C[C@H](N=[N+]=[N-])[C@@H](COP(=O)(Oc3cccnc3)Oc3cccnc3)O2)c(=O)[nH]c1=O	Human immunodeficiency virus 1	10 nM

Now for the molecule whose EC50 we want.
What does the record list as EC50 for Cc1cn([C@H]2C[C@H](N=[N+]=[N-])[C@@H](COP(=O)(Oc3ccc(C#N)cc3)Oc3cccnc3)O2)c(=O)[nH]c1=O (some centres undefined) ?
20 nM

* * *

Quick reference for pEC50 among some molecules
# System: Human immunodeficiency virus 1
# run_description: Antiviral activity against MDR1-resistant HIV1 infected in human MT4 cells assessed as protection from virus-induced cytopathogenicity after 4 days by MTT assay
# Type: functional, organism-based
# condition_description: Human immunodeficiency virus 1, MT4, 96 h
Worth noting: pEC50 values are minus log10 of concentrations stated in mol/L.

Completed entries (count: 3):
molecule	target_system	pEC50
Cc1ccc(OP(=O)(OC[C@H]2O[C@@H](n3cc(C)c(=O)[nH]c3=O)C[C@@H]2N=[N+]=[N-])Oc2ccc(C)nc2)cn1	Human immunodeficiency virus 1	6.40
Cc1cn([C@H]2C[C@H](N=[N+]=[N-])[C@@H](COP(=O)(Oc3cccnc3)Oc3cccnc3)O2)c(=O)[nH]c1=O	Human immunodeficiency virus 1	7.00
O=c1ccn([C@H]2CC[C@@H](COP(=O)(Oc3ccccc3)Oc3ccncc3)O2)c(=O)[nH]1 (some centres undefined)	Human immunodeficiency virus 1	4.42

What does the record list as pEC50 for Cc1ncccc1OP(=O)(OC[C@H]1O[C@@H](n2cc(C)c(=O)[nH]c2=O)C[C@@H]1N=[N+]=[N-])Oc1ccccc1 (some centres undefined) ?
5.80

* * *

# run_description: Cytotoxicity against human MT4 cells after 96 hrs by MTT assay
# Type: cell-based
measure_name: CC50 at 96 h

Completed entries (count: 5):
molecule	CC50 at 96 h
Cc1cn([C@H]2C[C@H](N=[N+]=[N-])[C@@H](COP(=O)(Oc3ccccc3)Oc3cccnc3)O2)c(=O)[nH]c1=O (stereo partly specified)	> 100 µM
Cc1cn([C@H]2C[C@H](N=[N+]=[N-])[C@@H](COP(=O)(Oc3cccnc3)Oc3ccc(Cl)cc3Cl)O2)c(=O)[nH]c1=O (stereo partly specified)	> 100 µM
Cc1cn([C@H]2C[C@H](N=[N+]=[N-])[C@@H](COP(=O)(Oc3cccnc3)Oc3cccnc3)O2)c(=O)[nH]c1=O	> 100 µM
Cc1ccc(OP(=O)(OC[C@H]2O[C@@H](n3cc(C)c(=O)[nH]c3=O)C[C@@H]2N=[N+]=[N-])Oc2ccccc2)cn1 (stereo partly specified)	> 100 µM
Cc1cn([C@H]2C[C@H](N=[N+]=[N-])[C@@H](CO)O2)c(=O)[nH]c1=O	60 µM

What does the record list as CC50 at 96 h for Cc1cn([C@H]2C[C@H](N=[N+]=[N-])[C@@H](COP(=O)(Oc3ccc(C#N)cc3)Oc3cccnc3)O2)c(=O)[nH]c1=O (stereo partly specified) ?
58 µM

What does the record list as CC50 at 96 h for O=c1ccn([C@H]2CC[C@@H](COP(=O)(Oc3ccccc3)Oc3ccncc3)O2)c(=O)[nH]1 (stereo partly specified) ?
> 100 µM

What does the record list as CC50 at 96 h for `Cc1ccc(OP(=O)(OC[C@H]2O[C@@H](n3cc(C)c(=O)[nH]c3=O)C[C@@H]2N=[N+]=[N-])Oc2ccc(C)nc2)cn1` ?
> 100 µM

What does the record list as CC50 at 96 h for Nc1ncnc2c1ncn2[C@H]1CC[C@@H](COP(=O)(Oc2ccccc2)Oc2cccnc2)O1 (stereo partly specified) ?
> 100 µM

What does the record list as CC50 at 96 h for Cc1ncccc1OP(=O)(OC[C@H]1O[C@@H](n2cc(C)c(=O)[nH]c2=O)C[C@@H]1N=[N+]=[N-])Oc1ccccc1 (stereo partly specified) ?
> 100 µM

What does the record list as CC50 at 96 h for `Nc1ncnc2c1ncn2[C@H]1CC[C@@H](CO)O1` ?
> 100 µM

What does the record list as CC50 at 96 h for `Cc1ncccc1OP(=O)(OC[C@H]1O[C@@H](n2cc(C)c(=O)[nH]c2=O)C[C@@H]1N=[N+]=[N-])Oc1cccnc1C` ?
> 100 µM

What does the record list as CC50 at 96 h for Cc1cn([C@H]2C[C@H](N=[N+]=[N-])[C@@H](COP(=O)(Oc3ccccc3)Oc3cccnc3Cl)O2)c(=O)[nH]c1=O (stereo partly specified) ?
≥ 100 µM

What does the record list as CC50 at 96 h for O=c1ccn([C@H]2CC[C@@H](COP(=O)(Oc3ccccc3)Oc3cccnc3)O2)c(=O)[nH]1 (stereo partly specified) ?
> 100 µM

* * *

# run_description: Chemical stability assessed as enzymatic hydrolysis half life in RPMI-1640 culture medium containing heat non-inactivated fetal bovine serum by HPLC analysis
# Type: physicochemical
# condition_description: cattle
Quick reference for half-life among some compounds
Output spec: scalar in h, unitless text.

Completed entries (count: 7):
Cc1cn([C@H]2C[C@H](N=[N+]=[N-])[C@@H](COP(=O)(O)Oc3ccc(C#N)cc3)O2)c(=O)[nH]c1=O 7.08
Cc1cn([C@H]2C[C@H](N=[N+]=[N-])[C@@H](COP(=O)(O)Oc3cncc(Cl)c3)O2)c(=O)[nH]c1=O 7.27
O=c1ccn([C@H]2CC[C@@H](COP(=O)(O)Oc3ccccc3)O2)c(=O)[nH]1 25.1
Cc1cn([C@H]2C[C@H](N=[N+]=[N-])[C@@H](COP(=O)(O)Oc3cccnc3Cl)O2)c(=O)[nH]c1=O 16.3
Cc1ccc(OP(=O)(O)OC[C@H]2O[C@@H](n3cc(C)c(=O)[nH]c3=O)C[C@@H]2N=[N+]=[N-])cn1 28.9
Cc1ncccc1OP(=O)(O)OC[C@H]1O[C@@H](n2cc(C)c(=O)[nH]c2=O)C[C@@H]1N=[N+]=[N-] 15.8
Cc1cn([C@H]2C[C@H](N=[N+]=[N-])[C@@H](COP(=O)(O)Oc3ccc(Cl)cc3Cl)O2)c(=O)[nH]c1=O 3.03

Now for the compound whose half-life we want.
What does the record list as half-life for `Cc1cn([C@H]2C[C@H](N=[N+]=[N-])[C@@H](COP(=O)(O)Oc3ccc(Cl)cc3)O2)c(=O)[nH]c1=O` ?
5.5

* * *

Quick reference for pEC50 among some compounds
# Tested on: Human immunodeficiency virus 1
# run_description: Antiviral activity against MDR1-resistant HIV1 infected in human MT4 cells assessed as protection from virus-induced cytopathogenicity after 4 days by MTT assay
# Format: functional, organism-based
# condition_description: Human immunodeficiency virus 1, MT4, 96 h
Worth noting: pEC50 values are minus log10 of concentrations stated in mol/L.

Completed entries (count: 2):
compound	pEC50
Cc1cn([C@H]2C[C@H](N=[N+]=[N-])[C@@H](COP(=O)(Oc3ccc(Br)cc3)Oc3cccnc3)O2)c(=O)[nH]c1=O (stereo partly specified)	6.30
Nc1ncnc2c1ncn2[C@H]1CC[C@@H](COP(=O)(Oc2ccccc2)Oc2cccnc2)O1 (stereo partly specified)	4.30

What does the record list as pEC50 for Cc1cn([C@H]2C[C@H](N=[N+]=[N-])[C@@H](COP(=O)(Oc3cccnc3)Oc3ccc(Cl)cc3Cl)O2)c(=O)[nH]c1=O (stereo partly specified) ?
7.00

What does the record list as pEC50 for Cc1cn([C@H]2C[C@H](N=[N+]=[N-])[C@@H](COP(=O)(Oc3ccccc3)Oc3cncc(Cl)c3)O2)c(=O)[nH]c1=O (stereo partly specified) ?
6.22

What does the record list as pEC50 for Cc1cn([C@H]2C[C@H](N=[N+]=[N-])[C@@H](COP(=O)(Oc3ccccc3)Oc3ccncc3)O2)c(=O)[nH]c1=O (stereo partly specified) ?
7.00

What does the record list as pEC50 for `Cc1ncccc1OP(=O)(OC[C@H]1O[C@@H](n2cc(C)c(=O)[nH]c2=O)C[C@@H]1N=[N+]=[N-])Oc1cccnc1C` ?
6.70

What does the record list as pEC50 for Cc1cn([C@H]2C[C@H](N=[N+]=[N-])[C@@H](COP(=O)(Oc3ccncc3)Oc3cccnc3)O2)c(=O)[nH]c1=O (stereo partly specified) ?
5.92

What does the record list as pEC50 for `Cc1cn([C@H]2C[C@H](N=[N+]=[N-])[C@@H](CO)O2)c(=O)[nH]c1=O` ?
7.00

What does the record list as pEC50 for Cc1cn([C@H]2C[C@H](N=[N+]=[N-])[C@@H](COP(=O)(Oc3ccccc3)Oc3cccnc3)O2)c(=O)[nH]c1=O (stereo partly specified) ?
6.30

What does the record list as pEC50 for Cc1cn([C@H]2C[C@H](N=[N+]=[N-])[C@@H](COP(=O)(Oc3ccccc3)Oc3cccnc3Cl)O2)c(=O)[nH]c1=O (stereo partly specified) ?
6.40
